Assay: Transporter-mediated transepithelial Gly-Sar transport
Format: in vitro ADME, canine
Conditions: dog, MDCK-MDR1, AP–BL permeability, MDCKII-MDR1, AP chamber pH 5.0, BL pH 7.4
Square brackets hold non-standard residues; d marks the D form. Peptide text beside a SMILES is read from it. Sar = CNCC(=O)O
OBSERVABLE: Papp A→B at 60 min, 0.5 μCi/mL

[[record]]
compound = "CN(CC(=O)O)C(=O)CN [Gly-Sar, Glycylsarcosine] (H-Gly-[Sar]-OH)"
observable = "Papp A→B at 60 min, 0.5 μCi/mL"
result = "6.4 ×10⁻⁶ cm/s"


====

Tested on: apical peptide transporters
Test: Apical [3H]Gly-Sar uptake
Format: in vitro ADME, canine
Settings: dog, MDCKII-MDR1 cells (apical uptake), pH 7.4
Square brackets hold non-standard residues; d marks the D form. Peptide text beside a SMILES is read from it. Sar = CNCC(=O)O
OBSERVABLE: Km at 15 min (µM)

[[record]]
molecule = "CN(CC(=O)O)C(=O)CN [Gly-Sar, Glycylsarcosine] (H-Gly-[Sar]-OH)"
measured_number = 29.1


====

Test: Transporter-mediated transepithelial Gly-Sar transport
Format: in vitro ADME, canine
Conditions: dog, BL–AP permeability, MDCKII-MRP2, AP chamber pH 5.0, BL pH 7.4
Square brackets hold non-standard residues; d marks the D form. Peptide text beside a SMILES is read from it. Sar = CNCC(=O)O
OBSERVABLE: Papp B→A at 60 min, 0.5 μCi/mL (×10⁻⁶ cm/s)

[[record]]
molecule = "CN(CC(=O)O)C(=O)CN [Gly-Sar, Glycylsarcosine] (H-Gly-[Sar]-OH)"
measured_number = 6.3


====

Test: Transporter-mediated transepithelial Gly-Sar transport
Format: in vitro ADME, canine
Conditions: dog, MDCK, pH 7.4, BL–AP permeability, MDCKII-wt, AP chamber pH 7.4, BL pH 7.4
Square brackets hold non-standard residues; d marks the D form. Peptide text beside a SMILES is read from it. Sar = CNCC(=O)O
OBSERVABLE: Papp B→A at 60 min, 0.5 μCi/mL

[[record]]
compound = "CN(CC(=O)O)C(=O)CN [Gly-Sar, Glycylsarcosine] (H-Gly-[Sar]-OH)"
result = "8 ×10⁻⁶ cm/s"


====

Experiment: Transporter-mediated transepithelial Gly-Sar transport
Format: in vitro ADME, canine
Conditions: dog, MDCK, AP–BL permeability, MDCKII-wt, AP chamber pH 5.0, BL pH 7.4
Square brackets hold non-standard residues; d marks the D form. Peptide text beside a SMILES is read from it. Sar = CNCC(=O)O
OBSERVABLE: Papp A→B at 60 min, 0.5 μCi/mL

[[record]]
molecule = "CN(CC(=O)O)C(=O)CN [Gly-Sar, Glycylsarcosine] (H-Gly-[Sar]-OH)"
result = "14.9 ×10⁻⁶ cm/s"


====

Experiment: Transporter-mediated transepithelial Gly-Sar transport
Format: in vitro ADME, canine
Details: dog, pH 7.4, AP–BL permeability, MDCKII-MRP2, AP chamber pH 7.4, BL pH 7.4
Square brackets hold non-standard residues; d marks the D form. Peptide text beside a SMILES is read from it. Sar = CNCC(=O)O
OBSERVABLE: Papp A→B at 60 min, 0.5 μCi/mL (×10⁻⁶ cm/s)

[[record]]
compound = "CN(CC(=O)O)C(=O)CN [Gly-Sar, Glycylsarcosine] (H-Gly-[Sar]-OH)"
measured_number = 17.7


====

Tested on: apical peptide transporters
Assay: Apical [3H]Gly-Sar uptake
Type: in vitro ADME, canine
Conditions: dog, MDCKII-BCRP cells (apical uptake), pH 7.4
Square brackets hold non-standard residues; d marks the D form. Peptide text beside a SMILES is read from it. Sar = CNCC(=O)O
OBSERVABLE: Km at 15 min (µM)

[[record]]
molecule = "CN(CC(=O)O)C(=O)CN [Gly-Sar, Glycylsarcosine] (H-Gly-[Sar]-OH)"
measured_number = 60.7


====

Test: Transporter-mediated transepithelial Gly-Sar transport
Type: in vitro ADME, canine
Details: dog, MDCK, BL–AP permeability, MDCKII-wt, AP chamber pH 5.0, BL pH 7.4
Square brackets hold non-standard residues; d marks the D form. Peptide text beside a SMILES is read from it. Sar = CNCC(=O)O
OBSERVABLE: Papp B→A at 60 min, 0.5 μCi/mL (×10⁻⁶ cm/s)

[[record]]
molecule = "CN(CC(=O)O)C(=O)CN [Gly-Sar, Glycylsarcosine] (H-Gly-[Sar]-OH)"
measured_number = 6.6


====

Assay: Transporter-mediated transepithelial Gly-Sar transport
Assay type: in vitro ADME, canine
Settings: dog, AP–BL permeability, MDCKII-BCRP, AP chamber pH 5.0, BL pH 7.4
Square brackets hold non-standard residues; d marks the D form. Peptide text beside a SMILES is read from it. Sar = CNCC(=O)O
OBSERVABLE: Papp A→B at 60 min, 0.5 μCi/mL (×10⁻⁶ cm/s)

[[record]]
compound = "CN(CC(=O)O)C(=O)CN [Gly-Sar, Glycylsarcosine] (H-Gly-[Sar]-OH)"
observable = "Papp A→B at 60 min, 0.5 μCi/mL"
measured_number = 7.6

